# Tested on: Trypanosoma brucei rhodesiense
# method-notes: Antiprotozoal activity against Trypanosoma brucei rhodesiense STIB900 at pH 7.4 by microplate assay
# Assay type: functional, organism-based
pIC50: −log10 of the molar value.
measurement-kind: pIC50

Would you please look over these solved cases?
CCN(CC)c1ccc2nc3c4ccccc4/c(=N\c4ccc([N+](=O)[O-])cc4C#N)cc-3oc2c1; 3.83
CCN(CC)c1ccc2nc3c4ccccc4/c(=N\c4ccc([N+](=O)[O-])cc4)cc-3oc2c1; 3.70
CCN(CC)c1ccc2nc3c4ccccc4/c(=N\c4cccc(OC)c4)cc-3oc2c1; 4.95
CCN(CC)c1ccc2nc3c4ccccc4/c(=N\c4ccccc4Cl)cc-3oc2c1; 4.07
CCN(CC)c1ccc2nc3c4ccccc4/c(=N\c4cccc(Cl)c4)cc-3oc2c1; 3.89
CCN(CC)c1ccc2nc3c4ccccc4/c(=N\c4ccc(OC)cc4)cc-3oc2c1; 4.83
CCN(CC)c1ccc2nc3c4ccccc4/c(=N\c4ccc(C)cc4)cc-3oc2c1; 4.44

I = CCN(CC)c1ccc2nc3c4ccccc4/c(=N\c4ccccc4)cc-3oc2c1
II = CCN(CC)c1ccc2nc3c4ccccc4/c(=N\c4ccc([N+](=O)[O-])cc4Cl)cc-3oc2c1
Response body: label of entry with the larger pIC50; valid values I , II . Your choice should be expressed through its label.
I
